tested_system: T1, interleukin 18 binding protein (IL-18BP) (UniProt O95998 31-194); also: unit not given here
T1 sequence (looked up): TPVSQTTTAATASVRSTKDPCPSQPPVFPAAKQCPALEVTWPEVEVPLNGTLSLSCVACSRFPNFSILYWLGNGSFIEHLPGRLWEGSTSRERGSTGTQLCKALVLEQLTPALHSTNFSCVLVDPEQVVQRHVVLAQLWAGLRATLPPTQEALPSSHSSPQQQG
assay: cell-based or functional assay
measure: HEK-Blue activity, +100 nM BP, DF-1,000,000

binder	value_reported
IL-18 variant K53S, S55F, T63S, R104K, H109Y (ligand) YFGKLESKLSVIRNLNDQVLFIDQGNRPLFEDMTDSDMRDNAPRTIFIISMYSDFQPRGMAVSISVKSEKISTLSSENKIISFKEMNPPDNIKDTKSDIIFFQKSVPGYDNKMQFESSSYEGYFLASEKERDLFKLILKKEDELGDRSIMFTVQNED	0.09
IL-18 variant K53H, S55G (ligand) YFGKLESKLSVIRNLNDQVLFIDQGNRPLFEDMTDSDMRDNAPRTIFIISMYHDGQPRGMAVTISVKSEKISTLSSENKIISFKEMNPPDNIKDTKSDIIFFQRSVPGHDNKMQFESSSYEGYFLASEKERDLFKLILKKEDELGDRSIMFTVQNED	0.08
